- Experiment notes: Displacement of [3H]PIB from human A-beta-40 peptide
Observable: pKi
Numbers only, as −log10 of the molar value.

Cc1cc(-c2nc3ccccc3s2)ccc1N[11CH3] ... 8.36

# batch: return pKi for each of the 5 compounds below
1. [11CH3]Nc1ccc(-c2nc3cc(F)ccc3s2)cc1
2. Cc1cc(-c2nc3cc(F)ccc3s2)ccc1N[11CH3]
3. [11CH3]Nc1ccc(-c2nc3ccccc3s2)cc1F
4. [11CH3]Nc1ccc(-c2nc3cc(F)ccc3s2)cc1Br
5. [11CH3]Nc1ccc(-c2nc3cc(F)ccc3s2)cc1Cl

RESULT:
[7.91, 8.08, 8.17, 8.89, 8.47]
